# System: S. aureus USA 300
# RUN_DESCRIPTION: Minimal inhibitory concentration, microbroth dilution
# Format: cell-based
# EXPERIMENTAL_PARAMETERS: Staphylococcus aureus, USA300; MIC; read-out: Minimal Inhibitory Concentrations (μM) S. aureus USA 300
Numbered stars: 1 amine (or outer) side, 2 acyl side, 3 side chain; on linkers, the order of the positions; unused ones are H or OH. Bridge positions count the residues as written; N and C are the ends. Square brackets hold non-standard residues; d marks the D form. Peptide text beside a SMILES is read from it. * marks the point of attachment. Piperazine(2S-CO,4-Me) = CN1CCN[C@H](C(=O)O)C1; NH(1,3-benzodioxol-5-yl) = c1cc2c(cc1N*)OCO2; Phe(3-Me) = Cc1cccc(C[C@H](N)C(=O)O)c1; Pro(4R-Me) = C[C@H]1CN[C@H](C(=O)O)C1; CO = O=C([*:1])[*:2]
Listed here are compounds together with their documented MIC.
MEASURED_ENDPOINT: MIC

* Cc1cccc(C[C@H](NC(=O)Nc2ccc3c(c2)OCO3)C(=O)N[C@H]2COC(=O)[C@@H]3C[C@@H](C)CN3C(=O)[C@H](C)NC(=O)[C@@H]3CCCCN3C(=O)[C@@H]3CCCN3C2=O)c1 | 1.25 µM
* Cc1cccc(C[C@H](NC(=O)Nc2ccc3c(c2)OCO3)C(=O)N[C@H]2COC(=O)[C@@H]3C[C@@H](C)CN3C(=O)[C@H](C)NC(=O)[C@@H]3CN(C)CCN3C(=O)[C@@H]3CCCN3C2=O)c1 [Compound 17] ({NH(1,3-benzodioxol-5-yl)-CO}-[Phe(3-Me)]SP[Piperazine(2S-CO,4-Me)]A[Pro(4R-Me)]; ester 2-C) | 10 µM
* Cc1cccc(C[C@H](NC(=O)Nc2ccc(Cl)cc2F)C(=O)N[C@H]2COC(=O)[C@@H]3C[C@@H](C)CN3C(=O)[C@H](C)NC(=O)[C@@H]3CCCCN3C(=O)[C@@H]3C[C@H](N)CN3C2=O)c1 | 0.625 µM

---

# RUN_DESCRIPTION: Microsomal metabolic stability
# Format: in vitro ADME, human
# EXPERIMENTAL_PARAMETERS: human, pH 7.4
Numbered stars: 1 amine (or outer) side, 2 acyl side, 3 side chain; on linkers, the order of the positions; unused ones are H or OH. Bridge positions count the residues as written; N and C are the ends. Square brackets hold non-standard residues; d marks the D form. Peptide text beside a SMILES is read from it. * marks the point of attachment. ξ: configuration not given here. Phe(3-Me) = Cc1cccc(C[C@H](N)C(=O)O)c1; NH(4-Cl-2-F-phenyl) = Fc1cc(Cl)ccc1N*; Pro(4R-Me) = C[C@H]1CN[C@H](C(=O)O)C1; Hyp = O=C(O)[C@@H]1C[C@@H](O)CN1; ξNMeThr = CNC(C(=O)O)[C@@H](C)O; aThr = C[C@H](O)[C@H](N)C(=O)O; Pip = O=C(O)[C@@H]1CCCCN1; X3 = c1cc2c(cc1N*)OCCO2; CO = O=C([*:1])[*:2]
MEASURED_ENDPOINT: Human (h)

- Cc1cccc(C[C@H](NC(=O)Nc2ccc(Cl)cc2F)C(=O)N[C@@H]2C(=O)N3C[C@H](O)C[C@H]3C(=O)N3CCCC[C@H]3C(=O)N[C@@H](C)C(=O)N3C[C@H](C)C[C@H]3C(=O)O[C@H]2C)c1 [Compound 6] ({NH(4-Cl-2-F-phenyl)-CO}-[Phe(3-Me)][aThr][Hyp][Pip]A[Pro(4R-Me)]; ester 2-C): 4.83
- Cc1cccc(C[C@H](NC(=O)Nc2ccc3c(c2)OCCO3)C(=O)N[C@H]2COC(=O)[C@@H]3C[C@@H](C)CN3C(=O)[C@H](C)NC(=O)[C@@H]3CCCCN3C(=O)[C@@H]3CCCN3C2=O)c1: 3.57
- Cc1cccc(C[C@H](NC(=O)Nc2ccc3c(c2)OCCO3)C(=O)N[C@@H]2C(=O)N3CCC[C@H]3C(=O)N3CCCC[C@H]3C(=O)N[C@@H](C)C(=O)N3C[C@H](C)C[C@H]3C(=O)O[C@H]2C)c1 [Compound 21] ({X3-CO}-[Phe(3-Me)][aThr]P[Pip]A[Pro(4R-Me)]; ester 2-C): 4.49
- Cc1cccc(C[C@H](NC(=O)Nc2ccc(Cl)cc2F)C(=O)N[C@@H]2C(=O)N3CCC[C@H]3C(=O)N(C)C([C@@H](C)O)C(=O)N[C@@H](C)C(=O)N3C[C@H](C)C[C@H]3C(=O)O[C@H]2C)c1 (stereo partly drawn) [Compound 5] ({NH(4-Cl-2-F-phenyl)-CO}-[Phe(3-Me)][aThr]P[ξNMeThr]A[Pro(4R-Me)]; ester 2-C): 0.31
- Cc1cccc(C[C@H](NC(=O)Nc2ccc3c(c2)OCO3)C(=O)N[C@H]2COC(=O)[C@@H]3C[C@@H](C)CN3C(=O)[C@H](C)NC(=O)[C@@H]3CCCCN3C(=O)[C@@H]3CCCN3C2=O)c1: 30.2

---

Listed here are molecules together with their documented μsol (μM).
# RUN_DESCRIPTION: Solubility determination
# Assay type: physicochemical
# EXPERIMENTAL_PARAMETERS: solubility
# Description: Test compounds were synthesized and supplied by the Department of Chemical Biology and Therapeutics at St. Jude Children's Research Hospital (Memphis, Tenn.). […] Mass data was acquired with an Acquity SQD Mass Spectrometer. […] 4.1 and analyzed using the Quanlynx software suite. […] Both UV and Single ion recording mass spectrometry were used to determine the quantification of the samples. […] Two calibration curves for solubility test samples were analyzed during the quantitation process. […]
Numbered stars: 1 amine (or outer) side, 2 acyl side, 3 side chain; on linkers, the order of the positions; unused ones are H or OH. Bridge positions count the residues as written; N and C are the ends. Square brackets hold non-standard residues; d marks the D form. Peptide text beside a SMILES is read from it. * marks the point of attachment. Piperazine(2S-CO,4-Me) = CN1CCN[C@H](C(=O)O)C1; Phe(3-Me) = Cc1cccc(C[C@H](N)C(=O)O)c1; Pro(4R-Me) = C[C@H]1CN[C@H](C(=O)O)C1; X1 = O=C([C@@H]1CSCCN1[*:1])[*:2]; Hyp = O=C(O)[C@@H]1C[C@@H](O)CN1; NH(4-Me-phenyl) = Cc1ccc(N*)cc1; aThr = C[C@H](O)[C@H](N)C(=O)O; CO = O=C([*:1])[*:2]
MEASURED_ENDPOINT: μsol (μM) (µM)

* Cc1ccc(NC(=O)N[C@@H](Cc2cccc(C)c2)C(=O)N[C@H]2COC(=O)[C@@H]3C[C@H](C)CN3C(=O)[C@H](C)NC(=O)[C@@H]3CCCCN3C(=O)[C@@H]3CCCN3C2=O)cc1 (stereo in doubt) | 49.8
* Cc1ccc(NC(=O)N[C@@H](Cc2cccc(C)c2)C(=O)N[C@@H]2C(=O)N3C[C@H](O)C[C@H]3C(=O)N3CCN(C)C[C@H]3C(=O)N[C@@H](C)C(=O)N3C[C@H](C)C[C@H]3C(=O)O[C@H]2C)cc1 [Compound 30] ({NH(4-Me-phenyl)-CO}-[Phe(3-Me)][aThr][Hyp][Piperazine(2S-CO,4-Me)]A[Pro(4R-Me)]; ester 2-C) | 54.5
* Cc1ccc(NC(=O)N[C@@H](Cc2cccc(C)c2)C(=O)N[C@@H]2C(=O)N3C[C@H](O)C[C@H]3C(=O)N3CCSC[C@H]3C(=O)N[C@@H](C)C(=O)N3C[C@H](C)C[C@H]3C(=O)O[C@H]2C)cc1 [Compound 42] ({NH(4-Me-phenyl)-CO}-[Phe(3-Me)][aThr][Hyp][X1]A[Pro(4R-Me)]; ester 2-C) | 29.7
* Cc1ccc(NC(=O)N[C@@H](Cc2cccc(C)c2)C(=O)N[C@H]2COC(=O)[C@@H]3C[C@@H](C)CN3C(=O)[C@H](C)NC(=O)[C@@H]3CN(C)CCN3C(=O)[C@@H]3CCCN3C2=O)cc1 [Compound 15] ({NH(4-Me-phenyl)-CO}-[Phe(3-Me)]SP[Piperazine(2S-CO,4-Me)]A[Pro(4R-Me)]; ester 2-C) | 25.1

---

# RUN_DESCRIPTION: Microsomal metabolic stability
# Type: in vitro ADME, mouse
# EXPERIMENTAL_PARAMETERS: CD-1, mouse, pH 7.4
Numbered stars: 1 amine (or outer) side, 2 acyl side, 3 side chain; on linkers, the order of the positions; unused ones are H or OH. Bridge positions count the residues as written; N and C are the ends. Square brackets hold non-standard residues; d marks the D form. Peptide text beside a SMILES is read from it. * marks the point of attachment. Phe(3-CF3) = N[C@@H](Cc1cccc(C(F)(F)F)c1)C(=O)O; Piperazine(2S-CO,4-Me) = CN1CCN[C@H](C(=O)O)C1; Phe(3-Me) = Cc1cccc(C[C@H](N)C(=O)O)c1; NH(4-Cl-2-F-phenyl) = Fc1cc(Cl)ccc1N*; Pro(4R-Me) = C[C@H]1CN[C@H](C(=O)O)C1; Propanoyl(3-NMe2) = CN(C)CCC(=O)*; Hyp = O=C(O)[C@@H]1C[C@@H](O)CN1; NH(4-Et-phenyl) = CCc1ccc(N*)cc1; aThr = C[C@H](O)[C@H](N)C(=O)O; Pip = O=C(O)[C@@H]1CCCCN1; CO = O=C([*:1])[*:2]
Listed here are molecules together with their documented Mouse.
MEASURED_ENDPOINT: Mouse (h)

- C[C@@H]1C[C@H]2C(=O)OC[C@H](NC(=O)[C@H](Cc3cccc(C(F)(F)F)c3)NC(=O)Nc3ccc(Cl)cc3F)C(=O)N3CCC[C@H]3C(=O)N3CCN(C)C[C@H]3C(=O)N[C@@H](C)C(=O)N2C1 [Compound 18] ({NH(4-Cl-2-F-phenyl)-CO}-[Phe(3-CF3)]SP[Piperazine(2S-CO,4-Me)]A[Pro(4R-Me)]; ester 2-C): 1.88
- Cc1cccc(C[C@H](NC(=O)Nc2ccc(Cl)cc2F)C(=O)N[C@@H]2C(=O)N3C[C@H](OC(=O)CCN(C)C)C[C@H]3C(=O)N3CCCC[C@H]3C(=O)N[C@@H](C)C(=O)N3C[C@H](C)C[C@H]3C(=O)O[C@H]2C)c1 [Compound 46] ({NH(4-Cl-2-F-phenyl)-CO}-[Phe(3-Me)][aThr][Hyp](Propanoyl(3-NMe2))[Pip]A[Pro(4R-Me)]; ester 2-C): 0.22
- CCc1ccc(NC(=O)N[C@@H](Cc2cccc(C)c2)C(=O)N[C@@H]2C(=O)N3C[C@H](O)C[C@H]3C(=O)N3CCCC[C@H]3C(=O)N[C@@H](C)C(=O)N3C[C@H](C)C[C@H]3C(=O)O[C@H]2C)cc1 [Compound 25] ({NH(4-Et-phenyl)-CO}-[Phe(3-Me)][aThr][Hyp][Pip]A[Pro(4R-Me)]; ester 2-C): 2.35
